Could you please report measured pIC50 for the items listed next?
- tested_system: UniProtKB Q96P20
- Sequence (Q96P20 whole entry): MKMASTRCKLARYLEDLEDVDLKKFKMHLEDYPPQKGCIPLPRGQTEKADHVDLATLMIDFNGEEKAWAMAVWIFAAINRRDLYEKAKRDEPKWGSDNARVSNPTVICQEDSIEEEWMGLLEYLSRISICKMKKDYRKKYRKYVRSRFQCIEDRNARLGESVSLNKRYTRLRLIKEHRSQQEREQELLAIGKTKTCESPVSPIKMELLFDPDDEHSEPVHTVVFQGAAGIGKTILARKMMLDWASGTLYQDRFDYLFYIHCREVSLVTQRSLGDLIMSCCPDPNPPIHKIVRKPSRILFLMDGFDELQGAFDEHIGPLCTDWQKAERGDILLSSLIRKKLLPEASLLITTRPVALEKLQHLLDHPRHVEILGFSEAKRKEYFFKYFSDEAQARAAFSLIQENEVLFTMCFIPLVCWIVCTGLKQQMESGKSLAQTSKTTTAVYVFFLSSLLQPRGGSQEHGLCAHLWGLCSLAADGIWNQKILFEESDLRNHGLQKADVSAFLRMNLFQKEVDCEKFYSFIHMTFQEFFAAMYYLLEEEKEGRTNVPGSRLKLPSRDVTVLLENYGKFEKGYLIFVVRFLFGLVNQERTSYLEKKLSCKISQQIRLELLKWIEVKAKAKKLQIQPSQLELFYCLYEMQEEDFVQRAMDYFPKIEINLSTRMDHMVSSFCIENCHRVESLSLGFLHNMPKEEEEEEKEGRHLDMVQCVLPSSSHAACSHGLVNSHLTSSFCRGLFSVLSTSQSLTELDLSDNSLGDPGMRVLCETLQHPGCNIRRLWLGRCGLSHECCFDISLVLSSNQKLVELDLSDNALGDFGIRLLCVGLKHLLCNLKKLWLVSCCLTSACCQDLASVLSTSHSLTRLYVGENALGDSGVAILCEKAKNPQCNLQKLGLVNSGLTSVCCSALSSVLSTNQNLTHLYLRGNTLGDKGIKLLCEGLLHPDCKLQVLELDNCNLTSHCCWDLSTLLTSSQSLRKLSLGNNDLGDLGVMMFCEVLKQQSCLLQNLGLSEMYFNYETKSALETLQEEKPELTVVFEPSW
- assay_summary: Scintillation Proximity (SPA) NLRP3 Assay: displacement of 3H-MCC950
- Format: binding
- conditions: displacement of 3H-MCC950; read-out: SPA IC50
pIC50: −log10 of the molar value.

The recorded pIC50 for CC(C)c1ccc(C2(C(=O)N[C@@H]3C[C@H](C)CCN(c4nnn[nH]4)C3)CC2)c(O)c1 (single isomer, unassigned) [27A*] is > 6.00

Sure, the documented pIC50 for C[C@H]1CCN(c2nnn[nH]2)C[C@H](NC(=O)C2(c3ccc(SC(F)(F)F)cc3)CC2)C1 (single isomer, unassigned) [69C*] is < 4.00

compound C[C@H]1CCN(c2nnn[nH]2)C[C@H](NC(=O)C2(c3ccc(Cl)nc3O)CC2)C1 (single isomer, unassigned) [100C*] , pIC50 observed: < 4.00

Entry C[C@@H]1CCN(c2nnn[nH]2)C[C@@H](NC(=O)C2(c3ccc(Cl)cc3F)CC2)C1 (single isomer, unassigned) [56B*] , pIC50 reported as 5.00 to 6.00

###

Give measured pIC50 for each item. Keep answers brief.
- tested_system: UniProt:Q96P20
- assay_summary: Scintillation Proximity (SPA) NLRP3 Assay: displacement of 3H-MCC950
- Type: binding
- conditions: displacement of 3H-MCC950; read-out: SPA IC50
pIC50: −log10 of the molar value.

The reported pIC50 of the compound C[C@@H]1CCN(c2nnn[nH]2)C[C@H](NC(=O)C2(c3ccc(C(F)(F)F)cc3O)CC2)C1 (single isomer, unassigned) [63A*] was > 6.00

Memo: C[C@@H]1CCN(c2nnn[nH]2)C[C@H](NC(=O)C2(c3ccc(C(F)F)cc3O)CC2)C1 (single isomer, unassigned) [30A*] , reported pIC50: > 6.00

Short answer for C[C@H]1C[C@H](NC(=O)C2(c3ccc(SC(F)F)cc3)CC2)[C@@H]2CC[C@H]1N2c1nnn[nH]1 [85D*] : pIC50 was < 4.00

Briefly, pIC50 measured for C[C@H]1CC[C@@H](NC(=O)C2(c3ccc(Cl)cc3)CC2)CN(c2nnn[nH]2)C1 (single isomer, unassigned) [36A*] : > 6.00

Just so you know, measured pIC50 for C[C@H]1CCN(c2nnn[nH]2)C[C@H](NC(=O)C2(c3ccc(Cl)c(F)c3O)CC2)C1 (single isomer, unassigned) [18C*] came out at 4.30 to 5.00

Looking up O=C(N[C@H]1CN(c2nnn[nH]2)CC[C@H]1F)C1(c2ccc(Cl)cc2)CC1 [Compound 50A] , I see its pIC50 listed as 4.30 to 5.00

Record summary for C[C@H]1CCN(c2nnn[nH]2)C[C@@H](NC(=O)C2(c3ccc(Cl)cc3)CC2)C1 (single isomer, unassigned) [12D*] : reported pIC50 = 4.30 to 5.00

Noted for C[C@@H]1CCN(c2nnn[nH]2)C[C@H](NC(=O)C2(c3ccc(SC(F)(F)F)cc3)CC2)C1 (single isomer, unassigned) [69A*] : its pIC50 reads > 6.00

# compound C[C@@H]1CC[C@@H](NC(=O)C2(c3ccc(Cl)cc3)CC2)CN1c1nnn[nH]1 [Compound 41C] ; its pIC50 = < 4.00

C[C@H]1C[C@H](NC(=O)C2(c3ccc(C(F)(F)F)cc3)CC2)[C@@H]2CC[C@H]1N2c1nnn[nH]1 [79D*] yielded pIC50 of 4.30 to 5.00

pIC50 reported for this compound O=C(N[C@@H]1C[C@H](C(F)(F)F)[C@H]2CC[C@@H]1N2c1nnn[nH]1)C1(c2ccc(Cl)cc2)CC1 (single isomer, unassigned) [103C*] : < 4.00

Field pIC50 (entry C[C@H]1C[C@@H](NC(=O)C2(c3ccc(C(F)F)cc3)CC2)[C@@H]2CC[C@H]1N2c1nnn[nH]1 [86C*] ) reads < 4.00

For C[C@H]1CC[C@H](NC(=O)C2(c3ccc(Cl)cc3O)CC2)CN(c2nnn[nH]2)C1 (single isomer, unassigned) [90B*] the compound record lists pIC50 as > 6.00

// pIC50 value for C[C@H]1CCN(c2nnn[nH]2)C[C@@H](NC(=O)C2(c3ccc(C(F)F)cc3O)CC2)C1 (single isomer, unassigned) [30D*] : 5.00 to 6.00

Per the record, C[C@H]1CCN(c2nnn[nH]2)C[C@H](NC(=O)C2(c3ccc(C(F)F)cc3O)CC2)C1 (single isomer, unassigned) [30C*] has pIC50 of < 4.00

The reported pIC50 of the compound CC1(C)C[C@@H](NC(=O)C2(c3ccc(Cl)cc3O)CC2)CN(c2nnn[nH]2)C1 (single isomer, unassigned) [42A*] was > 6.00

Sure, the documented pIC50 for C[C@@H]1CCN(c2nnn[nH]2)C[C@@H](NC(=O)C2(c3ccc(C4CC4)cc3)CC2)C1 (single isomer, unassigned) is 5.00 to 6.00
